Each item that follows carries a reported Ki.
tested-target: UniProtKB Q92794
assay-info: KAT6A assay (SAMDI-MS acetylation of H3 1-21 peptide)
Assay type: biochemical
run-parameters: Morrison equation fit; replicate number in parentheses; read-out: KAT6A Ki (nM) (replicate number)
Express your answer in nM, writing the number without its unit.

| compound | experimental-endpoint | unit-info | observed-measurement |
| --- | --- | --- | --- |
| CCOc1cc(C)c(F)cc1S(=O)(=O)Nc1noc2cc(Nc3cc[nH]n3)c(OC)cc12 | Ki | nM | 0.6 |

Task: Query for UniProtKB Q92794: what Ki does the record show for COc1cc2c(NS(=O)(=O)c3c(OC)cc(C4CCCN(C)C4)cc3OC)noc2cc1Nc1cc(C2CC2)n[nH]1 (single isomer, unassigned) [Example 149] ?
Result: 0.6

Task: What do we get for CCc1cc(Nc2cc3onc(NS(=O)(=O)c4c(OC)cccc4OC)c3cc2OC)[nH]n1 ?
Result: 1.1

Task: Also CCc1cc(Nc2cc3onc(NS(=O)(=O)c4ccc(C(F)(F)F)cc4Cl)c3cc2OC)n[nH]1 , if possible.
Result: 51.3

Task: How about this compound: CCc1cc(Nc2cc3onc(NS(=O)(=O)c4ccc(OC)c(F)c4)c3cc2OC)n[nH]1
Result: 78.7

* * *

tested-target: KAT7+JADE1+EAF6+ING5 4 protein complex (Homo sapiens (Human), UniProt O95251)
assay-info: KAT7 JADE1 assay (SAMDI-MS acetylation of H3 1-21 peptide)
Format: biochemical
run-parameters: Morrison equation fit; replicate number in parentheses; read-out: KAT7 JADE1 Ki (nM) (replicate number)
// values below are reported Ki
# unit: nM | format: bare number

| compound | Ki / nM |
| --- | --- |
| CCc1cc(Nc2cc3onc(NS(=O)(=O)c4c(OC)cc(C5COCCO5)cc4OC)c3cc2OC)[nH]n1 (single isomer, unassigned) [Example 240] | 7.5 |
| CCc1cc(Nc2cc3onc(NS(=O)(=O)c4ccc(OC)c(F)c4)c3cc2OC)n[nH]1 [Example 133] | 321 |
| CCc1cc(Nc2cc3onc(NS(=O)(=O)c4c(OC)cc(-c5ncc(C)cn5)cc4OC)c3cc2OC)[nH]n1 [Example 234] | 8.5 |
| CCN1CCCCC1c1cc(OC)c(S(=O)(=O)Nc2noc3cc(Nc4cc(C5CC5)n[nH]4)c(OC)cc23)c(OC)c1 (single isomer, unassigned) [Example 174] | 27.3 |
| COc1cc2c(NS(=O)(=O)c3c(OC)cccc3OC)noc2cc1Nc1cc(Cl)n[nH]1 [Example 92] | 219 |
| CCc1cc(Nc2cc3onc(NS(=O)(=O)c4cccc(Oc5ccccc5C)c4)c3cc2OC)n[nH]1 [Example 125] | 180 |
| COc1cc2c(NS(=O)(=O)c3c(OC)cc(CN(C)C)cc3OC)noc2cc1Nc1cc(C2CC2)n[nH]1 [Example 144] | 10.2 |
| COc1cc2c(NS(=O)(=O)c3c(OC)cc(CN4CCC(OC)CC4)cc3OC)noc2cc1Nc1cc(C2CC2)n[nH]1 [Example 194] | 6.3 |

Next compound, Ki to be filled in.
Task: What Ki value was documented for this compound, COc1cc2c(NS(=O)(=O)c3c(OC)cc(C4CN(C)CC(F)(F)C4)cc3OC)noc2cc1Nc1cc(C2CC2)[nH]n1 (single isomer, unassigned) [Example 228] ?
Result: 6.2

* * *

tested-target: KAT7+JADE1+EAF6+ING5 4 protein complex (Homo sapiens (Human))
assay-info: KAT7 JADE1 assay (SAMDI-MS acetylation of H3 1-21 peptide)
Type: biochemical
run-parameters: Morrison equation fit; replicate number in parentheses; read-out: KAT7 JADE1 Ki (nM) (replicate number)
Measured log10 of Ki, listed per entry for reference.
Quick note: numbers are log10 of Ki, with nM as the unit.

# count of solved cases: 5
| compound | observed-measurement |
| --- | --- |
| CCOc1cc(C)ccc1S(=O)(=O)Nc1noc2cc(Nc3cc[nH]n3)c(OC)cc12 | 2.26 |
| COc1cc2c(NS(=O)(=O)c3c(OC)cccc3OC)noc2cc1Nc1ccccn1 | 2.60 |
| COc1cc2c(NS(=O)(=O)c3c(OC)cc(C4CN(C5CCOC5)C4)cc3OC)noc2cc1Nc1cc(C2CC2)n[nH]1 (racemic) | 1.12 |
| COc1cc2c(NS(=O)(=O)c3c(OC)cccc3OC)noc2cc1Nc1cc2n(n1)CCC21CC1 | 2.38 |
| CCc1ccnc(Nc2cc3onc(NS(=O)(=O)c4c(OC)cccc4OC)c3cc2OC)n1 | 2.61 |

Task: // lookup log10 of Ki for COc1cc2c(NS(=O)(=O)c3c(OC)cccc3OC(C)C)noc2cc1Nc1cc[nH]n1
Result: 2.56

Task: Would you mind doing CCN1CCCC1c1cc(OC)c(S(=O)(=O)Nc2noc3cc(Nc4cc(C5CC5)[nH]n4)c(OC)cc23)c(OC)c1 (single isomer, unassigned) [Example 191] as well?
Result: 1.19

Task: Can you handle COc1cc2c(NS(=O)(=O)c3c(OC)cccc3OC3CC3)noc2cc1Nc1cc[nH]n1 next?
Result: 1.71

Task: How about COc1cc2c(NS(=O)(=O)c3c(OC)cccc3OC)noc2cc1Nc1cc(C2CC2)n[nH]1 ?
Result: 0.70

* * *

tested-target: KAT6A Full length enzyme (Homo sapiens (Human))
Sequence (Q92794 other isoform, or with tags, fused parts or gaps): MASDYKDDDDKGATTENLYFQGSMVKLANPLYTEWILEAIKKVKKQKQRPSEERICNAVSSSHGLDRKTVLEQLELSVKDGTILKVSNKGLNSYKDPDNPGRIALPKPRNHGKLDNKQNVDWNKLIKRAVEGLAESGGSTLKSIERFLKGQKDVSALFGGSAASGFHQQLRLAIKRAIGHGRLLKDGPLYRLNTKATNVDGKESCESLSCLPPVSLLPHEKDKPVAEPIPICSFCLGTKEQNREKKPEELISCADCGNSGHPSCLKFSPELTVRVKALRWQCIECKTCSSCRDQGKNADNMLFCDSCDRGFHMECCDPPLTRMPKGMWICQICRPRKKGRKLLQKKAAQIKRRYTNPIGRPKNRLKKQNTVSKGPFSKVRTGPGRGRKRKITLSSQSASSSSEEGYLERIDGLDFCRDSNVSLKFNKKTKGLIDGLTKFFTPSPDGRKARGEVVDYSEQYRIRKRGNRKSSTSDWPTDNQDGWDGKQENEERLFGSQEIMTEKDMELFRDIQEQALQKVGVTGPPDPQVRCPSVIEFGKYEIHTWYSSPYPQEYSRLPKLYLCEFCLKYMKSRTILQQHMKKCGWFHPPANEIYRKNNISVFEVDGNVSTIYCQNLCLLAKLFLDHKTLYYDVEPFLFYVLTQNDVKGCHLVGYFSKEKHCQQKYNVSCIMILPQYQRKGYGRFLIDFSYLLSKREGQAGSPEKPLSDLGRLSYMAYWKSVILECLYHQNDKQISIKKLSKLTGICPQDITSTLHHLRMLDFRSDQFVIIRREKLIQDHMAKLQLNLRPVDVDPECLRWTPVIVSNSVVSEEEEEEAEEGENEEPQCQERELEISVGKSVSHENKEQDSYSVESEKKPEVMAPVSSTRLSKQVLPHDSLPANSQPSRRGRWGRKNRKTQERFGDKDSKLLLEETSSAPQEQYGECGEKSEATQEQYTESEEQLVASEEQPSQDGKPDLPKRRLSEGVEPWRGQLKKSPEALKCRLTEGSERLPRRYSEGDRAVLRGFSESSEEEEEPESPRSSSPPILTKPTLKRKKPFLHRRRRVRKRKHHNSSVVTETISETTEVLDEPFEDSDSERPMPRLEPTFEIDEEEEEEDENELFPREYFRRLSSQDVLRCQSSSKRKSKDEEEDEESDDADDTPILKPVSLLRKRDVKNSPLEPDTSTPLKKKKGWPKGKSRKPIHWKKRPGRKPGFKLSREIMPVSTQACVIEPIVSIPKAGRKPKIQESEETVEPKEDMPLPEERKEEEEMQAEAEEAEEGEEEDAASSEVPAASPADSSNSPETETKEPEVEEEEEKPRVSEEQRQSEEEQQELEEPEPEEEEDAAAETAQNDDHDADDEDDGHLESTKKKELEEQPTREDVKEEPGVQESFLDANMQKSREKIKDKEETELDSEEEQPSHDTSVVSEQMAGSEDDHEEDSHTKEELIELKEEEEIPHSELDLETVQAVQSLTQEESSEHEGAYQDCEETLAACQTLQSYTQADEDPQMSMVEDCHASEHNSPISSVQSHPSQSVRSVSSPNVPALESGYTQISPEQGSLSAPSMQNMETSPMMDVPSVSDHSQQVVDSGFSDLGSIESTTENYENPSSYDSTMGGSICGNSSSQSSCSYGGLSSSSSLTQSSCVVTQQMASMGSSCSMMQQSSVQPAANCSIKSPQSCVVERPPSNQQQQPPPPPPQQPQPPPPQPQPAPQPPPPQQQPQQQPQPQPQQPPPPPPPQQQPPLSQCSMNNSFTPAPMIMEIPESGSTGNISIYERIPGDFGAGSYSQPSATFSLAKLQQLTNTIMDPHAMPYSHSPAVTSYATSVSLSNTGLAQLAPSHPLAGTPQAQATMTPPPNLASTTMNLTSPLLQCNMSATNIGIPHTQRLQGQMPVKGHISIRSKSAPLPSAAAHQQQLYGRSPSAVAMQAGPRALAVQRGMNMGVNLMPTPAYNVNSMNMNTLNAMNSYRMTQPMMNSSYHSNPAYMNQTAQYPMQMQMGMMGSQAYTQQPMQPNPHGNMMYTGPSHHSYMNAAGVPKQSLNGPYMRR
assay-info: KAT6A assay (SAMDI-MS acetylation of H3 1-21 peptide)
Assay type: biochemical
run-parameters: Morrison equation fit; replicate number in parentheses; read-out: KAT6A Ki (nM) (replicate number)
Cut-off 1 nM on Ki: below means T, at or above means F.

| compound | qualitative-label |
| --- | --- |
| COc1cc2c(NS(=O)(=O)c3c(OC)cc(CN(C)C)cc3OC)noc2cc1Nc1cc(C2CC2)n[nH]1 | F |

Task: Just wondering, is Ki of COc1cc2c(NS(=O)(=O)c3c(OC)cc(-c4ccc(C)nn4)cc3OC)noc2cc1Nc1cc(C2CC2)n[nH]1 below 1 nM?
Result: T

Task: Try the compound COc1cc2c(NS(=O)(=O)c3c(OC)cc(-c4cnc(N(C)C)cn4)cc3OC)noc2cc1Nc1cc(C2CC2)n[nH]1
Result: T

Task: Request: COc1cc2c(NS(=O)(=O)c3c(OC)cccc3OC)noc2cc1Nc1cc([C@H]2CC2(F)F)[nH]n1 (single isomer, unassigned)
Result: F

Task: Also, CCn1cnc(Nc2cc3onc(NS(=O)(=O)c4c(OC)cccc4OC)c3cc2OC)c1 please.
Result: F

Task: Repeat for the following compound: CCc1cc(Nc2cc3onc(NS(=O)(=O)c4cccc(Oc5ccc(F)cc5)c4)c3cc2OC)n[nH]1
Result: F

* * *

tested-target: KAT7+BRPF1+EAF6+ING5 4 protein complex (Homo sapiens (Human))
assay-info: KAT7 BRPF1 assay (SAMDI-MS acetylation of H3 1-21 peptide)
Format: biochemical
run-parameters: Morrison equation fit; replicate number in parentheses
Classes based on Ki: low-valued (below 5 nM), mid-valued (5 nM to below 60 nM), high-valued (60 nM or more)

Task: Class for CCc1cc(Nc2cc3onc(NS(=O)(=O)c4c(OC)cccc4OC)c3cc2OC)[nH]n1 ?
Result: low-valued

Task: And then COc1cc2c(NS(=O)(=O)c3ccccc3OC)noc2cc1Nc1cc[nH]n1 , what is it?
Result: high-valued

Task: COc1cc2c(NS(=O)(=O)c3c(OC)cccc3OC)noc2cc1Nc1cc(C)nn1CCO ?
Result: high-valued

Task: Next record, please: CCn1cc(Nc2cc3onc(NS(=O)(=O)c4c(OC)cccc4OC)c3cc2OC)nn1
Result: mid-valued

Task: Repeat with COc1cc2c(NS(=O)(=O)c3ccccc3OC)noc2cc1Nc1cc(C(C)C)[nH]n1
Result: mid-valued

Task: Entry COc1cc2c(NS(=O)(=O)c3c(OC)cccc3OC3CCC3)noc2cc1Nc1cc[nH]n1 please
Result: mid-valued

Task: Entry COc1cc2c(NS(=O)(=O)c3c(OC)cccc3OC)noc2cc1Nc1n[nH]c(C)n1 please
Result: high-valued

Task: Try COc1cc2c(NS(=O)(=O)c3c(OC)cc(-c4nccc(CN(C)C)n4)cc3OC)noc2cc1Nc1cc(C2CC2)n[nH]1 next.
Result: low-valued

Task: How about this molecule: COc1cccc(OC)c1S(=O)(=O)Nc1noc2cc(Nc3cc(C4CC4)n[nH]3)c(F)c(OC)c12
Result: low-valued

Task: Continue with CCOc1cc(C)ccc1S(=O)(=O)Nc1noc2cc(Nc3cc[nH]n3)c(OC)cc12
Result: mid-valued

* * *

tested-target: KAT7+JADE1+EAF6+ING5 4 protein complex (Homo sapiens (Human), UniProt O95251)
assay-info: KAT7 JADE1 assay (SAMDI-MS acetylation of H3 1-21 peptide)
Type: biochemical
run-parameters: Morrison equation fit; replicate number in parentheses; read-out: KAT7 JADE1 Ki (nM) (replicate number)
experimental-endpoint: Ki

| molecule | observed-measurement |
| --- | --- |
| CCc1nc(Nc2cc3onc(NS(=O)(=O)c4c(OC)cccc4OC)c3cc2OC)no1 | > 2340 nM |
| COc1cccc(OC)c1S(=O)(=O)Nc1noc2cc(N[C@@H]3CCOC3)cc(OC)c12 | > 2340 nM |

Then there is this molecule:
Task: Name the recorded Ki for COc1cc2c(NS(=O)(=O)c3c(OC)cccc3OC)noc2cc1Nc1cc([C@@H]2CC2(F)F)[nH]n1 (single isomer, unassigned) .
Result: > 29000 nM
